Tested on: Plasmodium falciparum K1
Test: WHO-TDR: Malaria
Format: functional, organism-based, Homo sapiens
Conditions: Erythrocyte
Recorded IC50 for the following compounds

// known answers, use as guide
CN1CCN(C(CNC(=O)CCc2ccccc2)c2ccsc2)CC1 (stereo unspecified)	> 10.7 µg/mL
NC(=O)c1cc(-c2ccccc2)sc1NC(=O)c1cc2ccccc2o1	> 10.9 µg/mL
O=C(CC1CCCC1)N1CCN(c2ccc(-c3ccccn3)nn2)CC1	0.731 µg/mL
Cc1cccc(Nc2ccc(NCCNS(=O)(=O)c3ccc(F)cc3)nn2)n1	0.582 µg/mL

Query :: Which value of IC50 has been reported for "CCOC(=O)N1CCC(NC(=O)CCc2csc(NC(=O)c3ccccc3)n2)CC1" in the records?
Result :: 10.6 µg/mL

Query :: Which value of IC50 has been reported for O=C(Nc1nc(-c2ccncc2)cs1)C1CCCN(S(=O)(=O)c2cccs2)C1 (stereo unspecified) in the records?
Result :: > 13 µg/mL

---

Recorded IC50 for the following compounds
Assay: WHO-TDR: Cytotoxicity
Type: toxicity, cell-based
Conditions: human, MRC5 cells

// known answers, use as guide
c1ccc2c(CCNc3[nH]cnc4ncnc3-4)c[nH]c2c1	1.91 µg/mL
O=C(Cc1csc(Nc2cccc(Cl)c2)n1)NCc1ccccn1	1.76 µg/mL
COc1ccc(-c2cn3c(C(=O)Nc4cc(C)on4)csc3n2)cc1	> 10.6 µg/mL
O=C(COc1ccc(Cl)cc1Cl)Nc1onc2c1CCC2	> 9.81 µg/mL
COc1ccc(S(=O)(=O)N2CCN(c3ccc(Nc4ccccn4)nn3)CC2)cc1	> 12.8 µg/mL
COc1cccc2c1CCN(Cc1ccc(Cl)cc1)C2=O	> 9.05 µg/mL
CCOC(=O)CNC(=O)CSc1nnc(NC(=O)c2ccccc2Cl)s1	3.81 µg/mL
Cc1ccc(-n2ncc3c(=O)[nH]c(-n4nc(C)cc4NC(=O)C4CC4)nc32)cc1	0.591 µg/mL
CCC(CO)Nc1nc(Nc2ccc(C)c(C)c2)c2nccnc2n1 (configuration not stated)	> 10.2 µg/mL
O=C(CCc1csc(NC(=O)c2ccco2)n1)NCCc1c[nH]c2ccccc12	3.18 µg/mL

Query :: Which value of IC50 has been reported for "CN(C1CC1)S(=O)(=O)c1ccc(C(=O)Nc2onc3c2CCCC3)cc1" in the records?
Result :: > 11.3 µg/mL

Query :: Which value of IC50 has been reported for "O=C(CCCSc1ccccc1)N(Cc1ccncc1)c1nc2c(F)cccc2s1" in the records?
Result :: > 13.1 µg/mL

Query :: Which value of IC50 has been reported for "O=C(CSc1nnc(NC(=O)c2cc(Cl)ccc2Cl)s1)Nc1ccc2c(c1)OCO2" in the records?
Result :: 1.94 µg/mL

Query :: Which value of IC50 has been reported for "Fc1ccccc1CSc1ccc(-c2ccccn2)nn1" in the records?
Result :: > 8.92 µg/mL

Query :: Which value of IC50 has been reported for CC1CCCN(S(=O)(=O)c2ccc(C(=O)Nc3nnc(-c4ccno4)o3)cc2)C1 (configuration not stated) in the records?
Result :: > 12.5 µg/mL

---

Tested on: Trypanosoma brucei brucei
Test: WHO-TDR: Human African Trypanosomiasis (HAT)
Type: functional, organism-based
Conditions: Squib-427
Recorded IC50 for the following compounds
Report the value in µg/mL with no unit label.

// known answers, use as guide
CC(=O)c1sc(NC(=O)C2CCCCN2S(C)(=O)=O)nc1-c1ccccc1 (stereo not drawn)	3.12
O=C(Nc1nc(-c2ccccn2)cs1)c1ccc2ncsc2c1	2.36

Query :: Which value of IC50 has been reported for "CCN(CC)c1cc(C)nc(Nc2ccc(NC(=O)c3c(F)cccc3F)cc2)n1" in the records?
Result :: 3.63

Query :: Which value of IC50 has been reported for "Cc1c(C(=O)N2CCC(C)CC2)sc2nc(-c3ccc(F)cc3)cn12" in the records?
Result :: 0.422

Query :: Which value of IC50 has been reported for "CCN(CC)c1ccc(NC(=O)Cc2csc(NC(=O)c3cc(OC)cc(OC)c3)n2)c(C)c1" in the records?
Result :: 0.493

---

Tested on: Brugia malayi
Assay: WHO-TDR: Lymphatic Filariasis
Type: functional
Set-up: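 tested at 10 µM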
measurementType: % Inhibition
# answer = value followed by unit

CSc1ccccc1NC(=O)CCc1csc(NC(=O)c2cccs2)n1	0%

Query :: Which value of % Inhibition has been reported for "CCOC(=O)c1ccccc1NC(=O)CSc1ncc(CO)n1Cc1ccc(OC)cc1" in the records?
Result :: 25%

Query :: Which value of % Inhibition has been reported for "CCOC(=O)N1CCN(C(=O)Nc2nc(CC(=O)Nc3nc4ccccc4s3)cs2)CC1" in the records?
Result :: 20%

Query :: Which value of % Inhibition has been reported for "COc1ccc(Nc2nc(Nc3ccccc3OC)nc(N3CCOCC3)n2)cc1" in the records?
Result :: 0%

Query :: Which value of % Inhibition has been reported for CN1CCc2c(OCC(=O)N3N=C(c4cccs4)CC3c3ccc(F)cc3)cccc2C1=O (stereo not given) in the records?
Result :: 90%

---

Tested on: Trypanosoma brucei brucei
Experiment: WHO-TDR: Human African Trypanosomiasis (HAT)
Type: functional, organism-based
Conditions: Squib-427
Recorded IC50 for the following molecules
Report the value in µg/mL with no unit label.

CCOC(=O)c1ccc(NC(=O)CSc2c(C)[nH]c3ccccc23)cc1	3.67
Cc1nc2c(ccc3nc(Nc4nc5ccc(C(C)C)cc5s4)sc32)s1	0.385
CC(C)N1CCc2c(sc(NC(=O)COc3ccc(Cl)cc3Cl)c2C(N)=O)C1	4.6
CCSc1nnc(NC(=O)CSc2nncc(=O)[nH]2)s1	3.13
COc1ccc(SCC(=O)Nc2nc(-c3ccccn3)cs2)cc1	0.347
CCCc1cc(=O)[nH]c(-n2nc(C)cc2NC(=O)COc2ccc(Cl)cc2Cl)n1	0.47
Cc1n[nH]c(C)c1CCc1nc(-c2ccc(Cl)cc2)no1	2.13

Could you now look at the following molecule, please?
Query :: Which value of IC50 has been reported for "CCOc1cccc2sc(N(CCCn3ccnc3)C(=O)c3cccs3)nc12" in the records?
Result :: 4.31

---

Recorded % Inhibition for the following compounds
Tested on: Brugia malayi
Test: WHO-TDR: Lymphatic Filariasis
Format: functional
Set-up: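 tested at 10 µM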
Report the value in % with no unit label.

COc1cccc(-c2cc(CC(=O)Nc3nc(C)cs3)no2)c1	0

Query :: Which value of % Inhibition has been reported for "Cc1nn(-c2ccc(F)cc2)c2ncc(C(=O)NCc3ccco3)c(Cl)c12" in the records?
Result :: 0

Query :: Which value of % Inhibition has been reported for CCOC(=O)c1sc(NC(=O)C(C)Sc2ncnc3ccccc23)c(C(=O)OCC)c1C (configuration not stated) in the records?
Result :: 100

Query :: Which value of % Inhibition has been reported for "Cc1c(C(=O)N2CCC(C)CC2)sc2nc(-c3ccc(F)cc3)cn12" in the records?
Result :: 0

---

Recorded IC50 for the following molecules
Test system: Plasmodium falciparum K1
Test: WHO-TDR: Malaria
Format: functional, organism-based, Homo sapiens
Conditions: Erythrocyte

COc1ccc(C(CNS(=O)(=O)c2ccc(Cl)s2)N2CCOCC2)cc1 (stereo not drawn)	> 12.5 µg/mL

Could you now look at the following molecule, please?
Query :: Which value of IC50 has been reported for CCOC(=O)c1sc(NC(=O)C2CCCN2S(C)(=O)=O)nc1-c1ccccc1 (stereo not drawn) in the records?
Result :: > 12.7 µg/mL

---

Test system: Plasmodium falciparum K1
Assay: WHO-TDR: Malaria
Type: functional, organism-based, Homo sapiens
Details: Erythrocyte
measurementType: IC50 (µg/mL)
Report the value in µg/mL with no unit label.

// known answers, use as guide
O=S(=O)(NCC(c1cccnc1)N1CCN(c2ccccc2F)CC1)c1cc(F)ccc1F (configuration not stated)	4.27
Cc1ccc(C)c2sc(N(CCCn3ccnc3)C(=O)Cc3ccc(F)cc3)nc12	3.4
Oc1ccc(Br)cc1/C=N/Nc1ncnc2[nH]cnc12	3.68

Query :: Request - read-out IC50 | tested on Plasmodium falciparum K1 | compound "CCOC(=O)c1c(NC(=O)Cn2c(-n3nc(C)cc3C)nc(CC)cc2=O)sc2c1CCC2"
Result :: 4.68

Query :: Request - read-out IC50 | tested on Plasmodium falciparum K1 | compound O=C(CSc1nnc(NC(=O)COc2ccc(Cl)cc2)s1)NCC1CCCO1 (configuration not stated)
Result :: 3.42

---

System: Plasmodium falciparum K1
Assay: WHO-TDR: Malaria
Format: functional, organism-based, Homo sapiens
Details: Erythrocyte
measurementType: IC50

// known answers, use as guide
O=C(CSc1ccc(NC(=O)c2cccs2)nn1)c1ccc(Cl)cc1	> 11.7 µg/mL
CCn1ccnc1N1CCN(C(=O)c2cccc(OC)c2OC)CC1	> 11.4 µg/mL
CSc1nc(NC(C)C)c2cnn(CCNC(=O)C34CC5CC(CC(C5)C3)C4)c2n1	> 12.9 µg/mL
CCOC(=O)N1CCc2nc(NC(=O)CCCS(=O)(=O)c3ccc(F)cc3)sc2C1	6.65 µg/mL
COc1ccc(-c2ccc(NS(=O)(=O)c3ccc(Cl)s3)cc2)nn1	> 11.5 µg/mL

Query :: Request - read-out IC50 | tested on Plasmodium falciparum K1 | compound "O=C(Nc1onc2c1CCCC2)c1cccc(Oc2ccccc2)c1"
Result :: 8.46 µg/mL

Query :: Request - read-out IC50 | tested on Plasmodium falciparum K1 | compound "O=C(COc1ccc(Cl)cc1)NCCCn1nc(-c2ccc(F)cc2)ccc1=O"
Result :: > 12.5 µg/mL

Query :: Request - read-out IC50 | tested on Plasmodium falciparum K1 | compound "CCOC(=O)c1ccc(NC(=O)CCSc2ccc(C)cc2)cc1"
Result :: > 10.3 µg/mL

Query :: Request - read-out IC50 | tested on Plasmodium falciparum K1 | compound "O=C(Nc1nnc(S)s1)c1cc(Br)ccc1Cl"
Result :: > 10.5 µg/mL

Query :: Request - read-out IC50 | tested on Plasmodium falciparum K1 | compound "O=C(NCCNc1ccc(Nc2ccccn2)nn1)c1ccc(C(F)(F)F)cc1"
Result :: 7.28 µg/mL

Query :: Request - read-out IC50 | tested on Plasmodium falciparum K1 | compound "O=C(NCc1cc(-c2ccccc2F)on1)c1ccc(Br)o1"
Result :: > 11 µg/mL
